target: PSMA (Homo sapiens, UniProt Q04609); construct: Detection of endogenous PSMA expression in LNCaP and PC3 cells relative to β-actin expression by Western; host or cells: LNCaP human prostate carcinoma cells (monolayer, spheroids or Potter-Elvehjem homogenates); experiment: Saturation binding (surface-bound and internalized), intact LNCaP cells as monolayer; settings: Al^18F-labeled conjugate or [18F]PSMA-1007, surface-bound
Sequence (Q04609 whole entry): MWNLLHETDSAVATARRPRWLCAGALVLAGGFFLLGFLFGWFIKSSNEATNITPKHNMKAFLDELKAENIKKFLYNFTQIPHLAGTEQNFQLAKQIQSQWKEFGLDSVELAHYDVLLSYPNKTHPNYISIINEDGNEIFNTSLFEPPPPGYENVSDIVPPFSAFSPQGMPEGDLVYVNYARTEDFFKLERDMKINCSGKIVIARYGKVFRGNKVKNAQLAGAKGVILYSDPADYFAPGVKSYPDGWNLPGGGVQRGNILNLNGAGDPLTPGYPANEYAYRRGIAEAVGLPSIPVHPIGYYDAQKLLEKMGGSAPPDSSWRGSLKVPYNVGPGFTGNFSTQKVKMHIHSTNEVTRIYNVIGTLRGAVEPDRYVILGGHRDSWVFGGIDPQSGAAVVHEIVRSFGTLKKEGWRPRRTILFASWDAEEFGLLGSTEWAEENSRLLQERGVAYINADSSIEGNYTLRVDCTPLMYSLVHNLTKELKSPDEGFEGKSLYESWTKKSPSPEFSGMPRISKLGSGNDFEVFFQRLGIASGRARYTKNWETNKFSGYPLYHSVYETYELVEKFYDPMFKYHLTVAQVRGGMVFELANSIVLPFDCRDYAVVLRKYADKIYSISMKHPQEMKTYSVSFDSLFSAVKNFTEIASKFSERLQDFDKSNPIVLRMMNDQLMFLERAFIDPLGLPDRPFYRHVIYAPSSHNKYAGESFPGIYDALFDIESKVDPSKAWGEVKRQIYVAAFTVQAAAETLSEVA
measurement label: Bmax (binding) (pmol/mg)

- compound: "O=C(O)CCC(NC(=O)NC(CCCCNC(=O)Cn1cc(CN(CC(=O)O)[C@@H]2CCCC[C@H]2N(CC(=O)O)CC(=O)O)nn1)C(=O)O)C(=O)O (mixture of isomers)"
  measurement label: "Bmax (binding)"
  quantity unit: "pmol/mg"
  test value: 1.87
- compound: "O=C(O)CC[C@H](NC(=O)N[C@@H](CCCCNC(=O)[C@H](Cc1ccc2ccccc2c1)NC(=O)c1ccc(CNC(=O)[C@H](CCC(=O)O)NC(=O)[C@H](CCC(=O)O)NC(=O)c2ccc([18F])nc2)cc1)C(=O)O)C(=O)O [[^18F]PSMA-1007]"
  measurement label: "Bmax (binding)"
  quantity unit: "pmol/mg"
  test value: 1.11

a: O=C(O)CCC(NC(=O)NC(CCCCNC(=O)[C@@H](Cc1cccc2ccccc12)NC(=O)CCCCCn1cc(CN(CC(=O)O)[C@@H]2CCCC[C@H]2N(CC(=O)O)CC(=O)O)nn1)C(=O)O)C(=O)O (mixture of isomers)
b: O=C(O)CCC(NC(=O)NC(CCCCNC(=O)[C@H](Cc1ccc2ccccc2c1)NC(=O)[C@H]1CC[C@H](CNC(=O)CCCCn2cc(CN(CC(=O)O)[C@@H]3CCCC[C@H]3N(CC(=O)O)CC(=O)O)nn2)CC1)C(=O)O)C(=O)O (mixture of isomers)
Query: Which has the higher Bmax (binding), a or b ? # answer = label of selected item
Result: b
(b: 2.18 pmol/mg, a: 1.33 pmol/mg)

###

experiment: n-Octanol/PBS distribution coefficient (logD7.4); assay type: physicochemical; settings: pH 7.4, radiolabel Al^18F, Table 1 mean ± SEM of three experiments, Table S1 individual values
measurement label: logD

- compound: "O=C(O)CCC(NC(=O)NC(CCCCNC(=O)[C@H](Cc1ccc2ccccc2c1)NC(=O)[C@H]1CC[C@H](CNC(=O)CCCCn2cc(CN(CC(=O)O)[C@@H]3CCCC[C@H]3N(CC(=O)O)CC(=O)O)nn2)CC1)C(=O)O)C(=O)O (mixture of isomers)"
  logD: -3.43
- compound: "O=C(O)CCC(NC(=O)NC(CCCCNC(=O)Cn1cc(CN(CC(=O)O)[C@@H]2CCCC[C@H]2N(CC(=O)O)CC(=O)O)nn1)C(=O)O)C(=O)O (mixture of isomers)"
  logD: -3.6
- compound: "O=C(O)CCC(NC(=O)NC(CCCCNC(=O)[C@@H](Cc1cccc2ccccc12)NC(=O)CCCCCn1cc(CN(CC(=O)O)[C@@H]2CCCC[C@H]2N(CC(=O)O)CC(=O)O)nn1)C(=O)O)C(=O)O (mixture of isomers)"
  logD: -3.34

###

assay: n-Octanol/PBS distribution coefficient (logD7.4); type: physicochemical; settings: pH 7.4, radiolabel ^111In, Table 1 mean ± SEM, Table S1 individual values
measurement label: logD

- compound: "O=C(O)CCC(NC(=O)NC(CCCCNC(=O)[C@H](Cc1ccc2ccccc2c1)NC(=O)[C@H]1CC[C@H](CNC(=O)CCCCn2cc(CN(CC(=O)O)[C@@H]3CCCC[C@H]3N(CC(=O)O)CC(=O)O)nn2)CC1)C(=O)O)C(=O)O (mixture of isomers)"
  logD: -3.87
- compound: "O=C(O)CCC(NC(=O)NC(CCCCNC(=O)[C@@H](Cc1cccc2ccccc12)NC(=O)CCCCCn1cc(CN(CC(=O)O)[C@@H]2CCCC[C@H]2N(CC(=O)O)CC(=O)O)nn1)C(=O)O)C(=O)O (mixture of isomers)"
  logD: -3.44
- compound: "O=C(O)CCC(NC(=O)NC(CCCCNC(=O)Cn1cc(CN(CC(=O)O)[C@@H]2CCCC[C@H]2N(CC(=O)O)CC(=O)O)nn1)C(=O)O)C(=O)O (mixture of isomers)"
  logD: -4.23

###

target: PSMA (Homo sapiens, UniProt Q04609); construct: Detection of endogenous PSMA expression in LNCaP and PC3 cells relative to β-actin expression by Western; host or cells: LNCaP human prostate carcinoma cells (monolayer, spheroids or Potter-Elvehjem homogenates); experiment: Saturation binding (surface-bound and internalized), intact LNCaP cells as monolayer; conditions: Al^18F-labeled conjugate or [18F]PSMA-1007, surface-bound, 37 °C, 2 h, read-out: Kd (binding)
measurement label: Kd (nM)

- molecule: "O=C(O)CCC(NC(=O)NC(CCCCNC(=O)Cn1cc(CN(CC(=O)O)[C@@H]2CCCC[C@H]2N(CC(=O)O)CC(=O)O)nn1)C(=O)O)C(=O)O (mixture of isomers)"
  measurement label: "Kd"
  test value: 26.4

I: O=C(O)CCC(NC(=O)NC(CCCCNC(=O)[C@H](Cc1ccc2ccccc2c1)NC(=O)[C@H]1CC[C@H](CNC(=O)CCCCn2cc(CN(CC(=O)O)[C@@H]3CCCC[C@H]3N(CC(=O)O)CC(=O)O)nn2)CC1)C(=O)O)C(=O)O (mixture of isomers)
II: O=C(O)CCC(NC(=O)NC(CCCCNC(=O)[C@@H](Cc1cccc2ccccc12)NC(=O)CCCCCn1cc(CN(CC(=O)O)[C@@H]2CCCC[C@H]2N(CC(=O)O)CC(=O)O)nn1)C(=O)O)C(=O)O (mixture of isomers)
Query: Looking at I and II , which one comes out lower in Kd terms? # answer = label of selected item
Result: II

###

assay: n-Octanol/PBS distribution coefficient (logD7.4); type: physicochemical; details: pH 7.4, radiolabel ^68Ga, Table 1 mean ± SEM, Table S1 individual values
measurement label: logD

- compound: "O=C(O)CCC(NC(=O)NC(CCCCNC(=O)[C@@H](Cc1cccc2ccccc12)NC(=O)CCCCCn1cc(CN(CC(=O)O)[C@@H]2CCCC[C@H]2N(CC(=O)O)CC(=O)O)nn1)C(=O)O)C(=O)O (mixture of isomers) [CHDT-PSMA-2]"
  logD: -3.11
- compound: "O=C(O)CCC(NC(=O)NC(CCCCNC(=O)Cn1cc(CN(CC(=O)O)[C@@H]2CCCC[C@H]2N(CC(=O)O)CC(=O)O)nn1)C(=O)O)C(=O)O (mixture of isomers) [CHDT-PSMA-1]"
  logD: -3.36
- compound: "O=C(O)CCC(NC(=O)NC(CCCCNC(=O)[C@H](Cc1ccc2ccccc2c1)NC(=O)[C@H]1CC[C@H](CNC(=O)CCCCn2cc(CN(CC(=O)O)[C@@H]3CCCC[C@H]3N(CC(=O)O)CC(=O)O)nn2)CC1)C(=O)O)C(=O)O (mixture of isomers) [CHDT-PSMA-3]"
  logD: -3.09

###

molecular target: PSMA (Homo sapiens, UniProt Q04609); construct: Detection of endogenous PSMA expression in LNCaP and PC3 cells relative to β-actin expression by Western; host or cells: LNCaP human prostate carcinoma cells (monolayer, spheroids or Potter-Elvehjem homogenates); experiment: Saturation binding (surface-bound and internalized), LNCaP spheroids; details: Al^18F-labeled conjugate or [18F]PSMA-1007, surface-bound, read-out: Kd (binding)
measurement label: Kd (µM)

- compound: "O=C(O)CCC(NC(=O)NC(CCCCNC(=O)[C@H](Cc1ccc2ccccc2c1)NC(=O)[C@H]1CC[C@H](CNC(=O)CCCCn2cc(CN(CC(=O)O)[C@@H]3CCCC[C@H]3N(CC(=O)O)CC(=O)O)nn2)CC1)C(=O)O)C(=O)O (mixture of isomers) [CHDT-PSMA-3]"
  Kd (µM): 0.0386

A: O=C(O)CCC(NC(=O)NC(CCCCNC(=O)[C@@H](Cc1cccc2ccccc12)NC(=O)CCCCCn1cc(CN(CC(=O)O)[C@@H]2CCCC[C@H]2N(CC(=O)O)CC(=O)O)nn1)C(=O)O)C(=O)O (mixture of isomers) [CHDT-PSMA-2]
B: O=C(O)CCC(NC(=O)NC(CCCCNC(=O)Cn1cc(CN(CC(=O)O)[C@@H]2CCCC[C@H]2N(CC(=O)O)CC(=O)O)nn1)C(=O)O)C(=O)O (mixture of isomers) [CHDT-PSMA-1]
Query: Which has the higher Kd, A or B ? # answer = label of selected item
Result: B

###

biological target: PSMA (Homo sapiens, UniProt Q04609); construct: Detection of endogenous PSMA expression in LNCaP and PC3 cells relative to β-actin expression by Western; host or cells: LNCaP human prostate carcinoma cells (monolayer, spheroids or Potter-Elvehjem homogenates); experiment: Saturation binding (surface-bound and internalized), intact LNCaP cells as monolayer; details: Al^18F-labeled conjugate or [18F]PSMA-1007, acid-resistant fraction, read-out: Kd,int (internalization)
pKd: −log10 of the molar value.
measurement label: pKd

- compound: "O=C(O)CCC(NC(=O)NC(CCCCNC(=O)Cn1cc(CN(CC(=O)O)[C@@H]2CCCC[C@H]2N(CC(=O)O)CC(=O)O)nn1)C(=O)O)C(=O)O (mixture of isomers)"
  pKd: 7.74
- compound: "O=C(O)CCC(NC(=O)NC(CCCCNC(=O)[C@H](Cc1ccc2ccccc2c1)NC(=O)[C@H]1CC[C@H](CNC(=O)CCCCn2cc(CN(CC(=O)O)[C@@H]3CCCC[C@H]3N(CC(=O)O)CC(=O)O)nn2)CC1)C(=O)O)C(=O)O (mixture of isomers)"
  pKd: 7.84
- compound: "O=C(O)CCC(NC(=O)NC(CCCCNC(=O)[C@@H](Cc1cccc2ccccc12)NC(=O)CCCCCn1cc(CN(CC(=O)O)[C@@H]2CCCC[C@H]2N(CC(=O)O)CC(=O)O)nn1)C(=O)O)C(=O)O (mixture of isomers)"
  pKd: 7.84

meta.source: paper PMC11417994
